# pKi per entry
# target-or-system: 5-hydroxytryptamine receptor 1B (Homo sapiens)
pKi: −log10 of the molar value.
experimental-endpoint: pKi

INSERT INTO assay_data (test_smiles, experimental_endpoint, experimental_result) VALUES
  ('Cc1c(C(=O)N2CCc3cc4ccnc(N5CCN(C)CC5)c4cc32)cnn1-c1ccccc1', 'pKi', 9.20),
  ('CCc1c(C(=O)N2CCc3cc4ccnc(N5C[C@@H](C)N[C@@H](C)C5)c4cc32)cnn1-c1ccc(C#N)cc1', 'pKi', 8.10),
  ('CN1CCN(c2nccc3cc4c(cc23)N(C(=O)c2ccc(Cl)cc2)CC4)CC1', 'pKi', 9.50);

###

# target-or-system: 5-hydroxytryptamine receptor 1B (Homo sapiens, UniProt P28222)
# Sequence (P28222 whole entry): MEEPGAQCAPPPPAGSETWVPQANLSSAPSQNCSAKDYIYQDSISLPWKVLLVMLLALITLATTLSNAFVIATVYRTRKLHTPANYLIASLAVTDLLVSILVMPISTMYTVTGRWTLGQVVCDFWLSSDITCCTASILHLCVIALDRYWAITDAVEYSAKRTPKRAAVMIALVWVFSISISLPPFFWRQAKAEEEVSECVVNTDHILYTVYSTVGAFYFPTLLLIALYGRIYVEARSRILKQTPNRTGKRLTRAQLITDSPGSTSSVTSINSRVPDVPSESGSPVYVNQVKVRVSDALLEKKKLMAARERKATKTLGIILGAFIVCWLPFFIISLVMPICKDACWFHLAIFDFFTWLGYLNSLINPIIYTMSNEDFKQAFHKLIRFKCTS
# test-summary: Partial agonist efficacy in the 5-HT1B GTPgammaS functional assay; Expressed as fraction of 5-HT efficacy
Let's look at some compounds and their measured Efficacy.
experimental-endpoint: Efficacy

INSERT INTO assay_data (test_smiles, experimental_result) VALUES
  ('CN1CCN(c2nccc3cc4c(cc23)N(C(=O)c2ccc(C#N)cc2)CC4)CC1', 0.86),
  ('CN1CCN(c2nccc3cc4c(cc23)N(C(=O)c2ccc(Cl)cc2)CC4)CC1', 0.75),
  ('CCc1c(C(=O)N2CCc3cc4ccnc(N5CCN(C)CC5)c4cc32)cnn1-c1ccc(C#N)cc1', 0.47),
  ('CN1CCN(c2nccc3cc4c(cc23)N(C(=O)c2ccccc2Cl)CC4)CC1', 0.42),
  ('Cc1c(C(=O)N2CCc3cc4ccnc(N5CCN(C)CC5)c4cc32)cnn1-c1ccccc1', 0.59),
  ('CN1CCN(c2nccc3cc4c(cc23)N(C(=O)c2ccccc2C(F)(F)F)CC4)CC1', 0.23);

###

# test-summary: Brain/blood concentration after administration in rat
# Type: ADME, tissue-based
# protocol-conditions: read-out: Brain/Blood concentration
experimental-endpoint: Kp

INSERT INTO assay_data (test_smiles, experimental_result) VALUES
  ('Cc1nc(C)c(C(=O)N2CCc3cc4ccnc(N5CCN(C)CC5)c4cc32)o1', 0.5),
  ('Cc1c(C(=O)N2CCc3cc4ccnc(N5CCN(C)CC5)c4cc32)cnn1-c1ccccc1', 1.1),
  ('CCc1c(C(=O)N2CCc3cc4ccnc(N5CCN(C)CC5)c4cc32)cnn1-c1ccc(C#N)cc1', 0.5),
  ('CN1CCN(c2nccc3cc4c(cc23)N(C(=O)c2ccc(C#N)cc2)CC4)CC1', 0.7),
  ('CN1CCN(c2nccc3cc4c(cc23)N(C(=O)c2ccc(Cl)cc2)CC4)CC1', 1.3),
  ('CN1CCN(c2nccc3cc4c(cc23)N(C(=O)c2cnn(C)c2C(F)(F)F)CC4)CC1', 0.1),
  ('CN1CCN(c2nccc3cc4c(cc23)N(C(=O)c2cccc3ncccc23)CC4)CC1', 0.2);
